Reported PBM binding z-score is given for each of the following sequences.
tested on: RARb homodimer (NR concentration 270 nM); experiment: PBM binding z-score (relative to random genomic background probes); higher = stronger binding; sequences stand for … in GC…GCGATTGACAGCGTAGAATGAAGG
Field format: numeric only.

- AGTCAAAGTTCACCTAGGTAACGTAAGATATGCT: 4.16
- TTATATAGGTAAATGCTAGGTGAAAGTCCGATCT: 0.66
- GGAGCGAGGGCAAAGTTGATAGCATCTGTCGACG: 0.881
- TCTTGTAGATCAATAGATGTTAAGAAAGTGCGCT: -0.256

Which PBM binding z-score value belongs to "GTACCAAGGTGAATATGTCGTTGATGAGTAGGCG" ?
0.432

Which PBM binding z-score value belongs to "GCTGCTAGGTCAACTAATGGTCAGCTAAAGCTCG" ?
3.51

Which PBM binding z-score value belongs to "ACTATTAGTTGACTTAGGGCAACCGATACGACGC" ?
0.899

Which PBM binding z-score value belongs to "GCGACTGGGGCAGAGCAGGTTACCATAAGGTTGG" ?
0.826

Which PBM binding z-score value belongs to "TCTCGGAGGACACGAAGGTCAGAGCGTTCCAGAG" ?
3.79
